Where do the numbers come from? From ChEMBL document CHEMBL4219232.

- protocol: Thermodynamic solubility in Japanese pharmacopoeia disintegration test solution 2 at 6.8
- Format: physicochemical
- cond: Japanese pharmacopoeia disintegration test solution 2, pH 6.8; read-out: Therm_solubility
assayEndpoint: solubility thermodynamic (µg/mL)

1. Cn1nc(C(F)(F)F)cc1C(=O)N[C@@H]1CCN(C(=O)c2cc(Cl)c3nccnc3c2)C[C@@H]1c1ccccc1
2. COc1cc(C(=O)N2CC[C@H](NC(=O)c3ccccc3OC(F)(F)F)c3c2cnn3C(C)C)cnc1OC
Sort 1 and 2 by solubility thermodynamic descending and give the first. Please reply using the label of the selected record.
2
(2: 24 µg/mL, 1: 8 µg/mL)

* * *

- protocol: Permeability of the compound from apical to basolateral side at pH 7.8 by PAMPA
assayEndpoint: Papp (×10⁻⁶ cm/s)

Cn1nc(C(F)(F)F)cc1C(=O)N[C@@H]1CCN(C(=O)c2cc(Cl)c3nccnc3c2)C[C@@H]1c1ccccc1
20.3
COc1cc(C(=O)N2CC[C@H](NC(=O)c3ccccc3OC(F)(F)F)c3c2cnn3C(C)C)cnc1OC
16.7

* * *

- systemName: Serine palmitoyltransferase 2 (Homo sapiens, UniProt O15270)
- Sequence (O15270 whole entry): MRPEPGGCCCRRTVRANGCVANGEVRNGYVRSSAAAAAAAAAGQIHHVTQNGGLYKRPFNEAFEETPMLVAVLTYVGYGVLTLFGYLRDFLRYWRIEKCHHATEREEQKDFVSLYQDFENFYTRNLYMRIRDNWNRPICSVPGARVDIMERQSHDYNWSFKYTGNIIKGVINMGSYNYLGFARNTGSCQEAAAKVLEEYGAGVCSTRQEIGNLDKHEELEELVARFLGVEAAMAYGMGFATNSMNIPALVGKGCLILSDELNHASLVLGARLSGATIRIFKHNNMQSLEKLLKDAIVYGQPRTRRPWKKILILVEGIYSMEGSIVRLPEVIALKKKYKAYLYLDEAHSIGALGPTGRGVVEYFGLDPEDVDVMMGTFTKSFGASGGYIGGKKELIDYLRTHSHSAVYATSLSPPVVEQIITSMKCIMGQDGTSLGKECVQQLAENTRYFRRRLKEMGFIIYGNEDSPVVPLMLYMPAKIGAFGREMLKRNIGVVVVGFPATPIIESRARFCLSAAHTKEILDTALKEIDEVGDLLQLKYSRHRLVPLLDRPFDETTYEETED
- protocol: Inhibition of human SPT2 transfected in Freestyle293 cells using L-serine and palmitoyl-CoA as substrate preincubated for 60 mins followed by substrate addition measured after 15 mins by mass spectrometric analysis
assayEndpoint: IC50 (nM)
All answers are understood in nM, so give the number only.

Fill in: IC50 of CCCCCCC(=O)CCCCCC/C=C/C[C@@H](O)[C@H](O)[C@@](N)(CO)C(=O)O [MYRIOCIN] is ___
0.13
